target: rat NaP2b (SLC34A2) (Rattus norvegicus); construct: host or cells: HEK293; experiment: Inhibition of NaP2b-mediated Pi (33P) uptake in transfected HEK293 cells, rat NaP2b; type: cell-based; conditions: 33P Pi uptake, 0.1 mM phosphate, value given as pIC50 range
Sequence (Q9JJ09 whole entry): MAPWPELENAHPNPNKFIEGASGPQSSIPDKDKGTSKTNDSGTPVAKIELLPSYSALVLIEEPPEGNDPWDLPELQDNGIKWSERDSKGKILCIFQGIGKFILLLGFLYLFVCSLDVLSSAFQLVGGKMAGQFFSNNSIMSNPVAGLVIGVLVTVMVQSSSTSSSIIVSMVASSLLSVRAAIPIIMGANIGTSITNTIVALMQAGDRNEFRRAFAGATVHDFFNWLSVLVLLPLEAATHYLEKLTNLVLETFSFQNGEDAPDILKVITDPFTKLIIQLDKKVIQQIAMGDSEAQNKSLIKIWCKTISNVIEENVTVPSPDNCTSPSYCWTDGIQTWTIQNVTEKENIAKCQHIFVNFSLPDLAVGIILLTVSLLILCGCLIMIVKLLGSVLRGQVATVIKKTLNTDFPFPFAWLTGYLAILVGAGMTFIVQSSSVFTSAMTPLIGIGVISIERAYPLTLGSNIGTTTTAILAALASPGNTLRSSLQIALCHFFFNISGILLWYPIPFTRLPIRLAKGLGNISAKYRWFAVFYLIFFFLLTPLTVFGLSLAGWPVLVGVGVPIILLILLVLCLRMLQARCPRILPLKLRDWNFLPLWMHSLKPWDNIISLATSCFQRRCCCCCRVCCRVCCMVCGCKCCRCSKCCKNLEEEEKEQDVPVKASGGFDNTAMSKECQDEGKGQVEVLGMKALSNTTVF
pIC50: −log10 of the molar value.
quantity measured: pIC50

Please go through the list and note pIC50 for each molecule.
1. O=C(CCOCCOCCOCCOCCSCc1cccc(C(=O)Nc2ccc(N3CCCCC3)cc2-c2cc(C(=O)NCc3cccc(C(F)(F)F)c3)ccn2)c1)NCCN1CCOCC1
2. O=C(O)CCSCc1cccc(C(=O)Nc2ccc(N3CCCCC3)cc2-c2cc(NCc3cccc(C(F)(F)F)c3)ncn2)c1

1. 5.10 to 6.00
2. 5.10 to 6.00

What the record says about `O=C(O)CCOCCOCCOCCOCCCc1cccc(C(=O)Nc2ccc(OC3CCCC3)cc2-c2cc(C(=O)N[C@H]3CCCc4ccccc43)ccn2)c1` : pIC50 is > 6.00

* * *

Record form. Attribute: pIC50. Fill in for each entry.
target: rat NaP2b (SLC34A2) (Rattus norvegicus); construct: host or cells: HEK293; assay: Inhibition of NaP2b-mediated Pi (33P) uptake in transfected HEK293 cells, rat NaP2b; type: cell-based; conditions: 33P Pi uptake, 0.1 mM phosphate, value given as pIC50 range
pIC50: −log10 of the molar value.

// known answers, use as guide
What the record says about CCN(CC)CCN(C)C(=O)c1cccc(C(=O)Nc2ccc(N3CCCCC3)cc2-c2cc(C(=O)NCc3cccc(C(F)(F)F)c3)ccn2)c1 [Example 4.1] : pIC50 is 4.50 to 5.00

What the record says about CN(CCN1C[C@H](O)C[C@H]1C(=O)N(C)CCOCCOCCOCCC(=O)OC(C)(C)C)C(=O)c1cccc(C(=O)Nc2ccc(N3CCCCC3)cc2-c2cc(C(=O)N[C@H]3CCCc4ccccc43)ccn2)c1 [Example 241] : pIC50 is 5.10 to 6.00

What the record says about CN(CCN1CCC[C@H]1C(=O)N(C)CCOCCOCCOCCC(=O)OC(C)(C)C)C(=O)c1cccc(C(=O)Nc2ccc(N3CCCCC3)cc2-c2cc(C(=O)N[C@H]3CCCc4ccccc43)ccn2)c1 [Example 190] : pIC50 is 5.10 to 6.00

What the record says about CN(CCOCCOCCOCCC(=O)O)C(=O)c1cccc(SCc2cccc(C(=O)Nc3ccc(N4CCCCC4)cc3-c3cc(C(=O)NCc4cccc(C(F)(F)F)c4)ccn3)c2)c1 [Example 135] : pIC50 is 5.10 to 6.00

What the record says about CN(CCN1CCOCC1)C(=O)c1cccc(C(=O)Nc2ccc(N3CCSCC3)cc2-c2cc(C(=O)NCc3cccc(C(F)(F)F)c3)ccn2)c1 [Example 118] : pIC50 is 5.10 to 6.00

Please go through the list and note pIC50 for each compound.
1. CCN(CC)c1ccc(NC(=O)c2cccc(CSCCOCCOCCOCCOCCC(=O)N(CCO)CCO)c2)c(-c2cc(C(=O)NCc3cccc(C(F)(F)F)c3)ccn2)c1 [Example 164]
2. O=C(O)CCSCc1cccc(C(=O)Nc2ccc(N3CCCCC3)cc2-c2cc(C(=O)CCc3ccccc3)ccn2)c1 [Example 5.1]
3. CN(CCN1CCCC[C@H]1C(=O)N(C)CCOCCOCCOCCC(=O)OC(C)(C)C)C(=O)c1cccc(C(=O)Nc2ccc(N3CCCCC3)cc2-c2cc(C(=O)N[C@H]3CCCc4ccccc43)ccn2)c1 [Example 240]

["5.10 to 6.00", "5.10 to 6.00", "5.10 to 6.00"]
